test.details: inhibitors of intracellular T. cruzi growth, primary screen, luminescence, NIH3T3 host cells (AID 1885);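 also: signal also drops with host cell toxicity which is not excluded here; 0% = plate median of DMSO wells and 100% = zero luminescence signal; higher percent means less beta-gal luminescence so fewer parasites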
particulars: T. cruzi beta-gal in NIH3T3, luminescence, 90 h; hits give high values; concentration not given here
The campaign covered roughly 300,000 compounds. About 4,400 (1.5%) were called active. The entries come from a sample that favours actives as a whole.
Listed compounds paired with reported inhibition
property.label: inhibition

1) CC(=O)c1sc(N/N=C\c2ccc(C)cc2)nc1C :: -6.96% (inactive)
2) COc1ccc(-c2cc(C(=O)N3CCN(Cc4ccc5c(c4)OCO5)CC3)on2)cc1OC :: -12.7% (inactive)
3) Cc1ccc(C)c(N2CCN(C(=O)CCCCCn3c(=S)[nH]c4ccc(N5CCOCC5)cc4c3=O)CC2)c1 :: 56.8% (active)
4) CCn1c(=N)n(CC(=O)c2cccc(OC)c2)c2ccccc21 :: 7.38% (inactive)
5) CCCCCCCCCCOC(=O)Cn1c(COc2ccc(C)cc2)[n+](C)c2ccccc21 :: 46.2% (inactive)
6) CC(=O)c1sc(N/N=C/c2ccc(C(C)C)cc2)nc1C :: 65.4% (active)
7) COCCCNC(=O)/C=C/c1ccc(OCc2c(F)cccc2Cl)cc1 :: 19% (inactive)
8) Cc1cc2nc3n(c2cc1C)CC1CC(C(=O)NCCC(C)C)N(C)C31 (stereo unspecified) :: -2.62% (inactive)
9) CN(C)CCCNC(=O)/C=C/c1ccc(OCc2c(F)cccc2Cl)cc1 :: 55.5% (active)
10) O=C(Nc1ccc(OC(F)(F)F)cc1)c1ccc2c(c1)no[n+]2[O-] :: 34.6% (inactive)
11) Cc1ccc(C)c(N2CCN(C(=O)CCCCn3c(=O)[nH]c4ccccc4c3=O)CC2)c1 :: 4.26% (inactive)
12) Cc1cc(C)c(S(=O)(=O)n2cc(C(C)C(N)C(=O)O)c3ccccc32)c(C)c1 (stereo unspecified) :: -6.09% (inactive)
13) Cc1cc(C)c(-c2c(O)c3ccccc3n(C)c2=O)c(C)c1 :: -3.11% (inactive)
14) CNC(=O)c1ccc(NC(=O)c2cccc(C(F)(F)F)c2)cc1 :: -8.58% (inactive)
15) CCN1C(=O)[C@H]2[C@@H](c3ccc(-c4ccc(F)cc4)cc3)N[C@@](Cc3ccccc3)(C(=O)OC)[C@H]2C1=O :: 41.5% (inactive)
16) CCCCCCCCCCOC(=O)Cn1c(COc2cccc(OC)c2)[n+](C)c2ccccc21 :: 65.1% (active)
17) CCOc1cc(C(=O)O)ccc1OCCOc1ccccc1 :: 3.5% (inactive)
18) CC(=O)c1sc(NC(=O)CCCOc2ccccc2C)nc1C :: -0.939% (inactive)
19) O=C(COc1ccccc1)Nc1ccc(F)cc1 :: -10.9% (inactive)
20) Cc1nc(NC(=O)c2cccc(Cl)c2)sc1-c1csc(Nc2cccc(Cl)c2)n1 :: -1.87% (inactive)
21) COc1ccc(N2CCN(C(=O)COC(=O)c3cccc(S(=O)(=O)Nc4ccccc4OC)c3)CC2)cc1 :: 8.41% (inactive)
